Would you mind telling me the reported IC50 of each entry?
- Test system: rhIL-2 stimulated STAT5 phosphorylation in isolated human T cells
- experiment summary: Human T Cell Assay: Inhibition of pSTAT5
- Type: cell-based
Structures can show the parent of a compound that is named as a salt.
Numbers only, in nM.

>>> df
                                   molecule  quantity_name  measurement
0  CCc1cc(O)c(F)cc1-c1cc2[nH]nc(-c3nnc(C)[nH]3)c2c(NCc2ccccc2N(C)S(C)(=O)=O)n1 [Example 165]           IC50         91.3
1  CC(=O)N1CCc2[nH]c(-c3n[nH]c4nc(-c5cc(F)c(O)cc5CC(F)(F)F)nc(NCc5cc(O)ccc5N(C)S(C)(=O)=O)c34)nc2C1 [Example 170]           IC50          767
2  Cc1ccc(-c2nnc(-c3n[nH]c4cc(-c5cc(F)c(O)cc5CC(F)(F)F)nc(NCc5ccccc5N(C)S(C)(=O)=O)c34)[nH]2)cn1 [Example 166]           IC50          591
3  CCc1cc(O)c(F)cc1-c1cc2[nH]nc(C(=O)Nc3ccc(C)nc3)c2c(NCc2ccccc2N(C)S(C)(=O)=O)n1 [Example 56]           IC50         53.4
4  CCc1cc(O)c(F)cc1-c1cc2[nH]nc(C(=O)NC)c2c(NCc2cc(O)ccc2N(C)S(C)(=O)=O)n1 [Example 31]           IC50         48.2

Please examine the following record next.
Qu. I am curious: what IC50 value has been reported for CCc1cc(O)c(F)cc1-c1cc2[nH]ncc2c(NCc2cc(Cl)ccc2N(C)S(C)(=O)=O)n1 [Example 133, hydrochloride] ?
Ans. 34.7

* * *

- tested target: JAK1 (Homo sapiens (Human), UniProt P23458)
- Sequence (P23458 whole entry): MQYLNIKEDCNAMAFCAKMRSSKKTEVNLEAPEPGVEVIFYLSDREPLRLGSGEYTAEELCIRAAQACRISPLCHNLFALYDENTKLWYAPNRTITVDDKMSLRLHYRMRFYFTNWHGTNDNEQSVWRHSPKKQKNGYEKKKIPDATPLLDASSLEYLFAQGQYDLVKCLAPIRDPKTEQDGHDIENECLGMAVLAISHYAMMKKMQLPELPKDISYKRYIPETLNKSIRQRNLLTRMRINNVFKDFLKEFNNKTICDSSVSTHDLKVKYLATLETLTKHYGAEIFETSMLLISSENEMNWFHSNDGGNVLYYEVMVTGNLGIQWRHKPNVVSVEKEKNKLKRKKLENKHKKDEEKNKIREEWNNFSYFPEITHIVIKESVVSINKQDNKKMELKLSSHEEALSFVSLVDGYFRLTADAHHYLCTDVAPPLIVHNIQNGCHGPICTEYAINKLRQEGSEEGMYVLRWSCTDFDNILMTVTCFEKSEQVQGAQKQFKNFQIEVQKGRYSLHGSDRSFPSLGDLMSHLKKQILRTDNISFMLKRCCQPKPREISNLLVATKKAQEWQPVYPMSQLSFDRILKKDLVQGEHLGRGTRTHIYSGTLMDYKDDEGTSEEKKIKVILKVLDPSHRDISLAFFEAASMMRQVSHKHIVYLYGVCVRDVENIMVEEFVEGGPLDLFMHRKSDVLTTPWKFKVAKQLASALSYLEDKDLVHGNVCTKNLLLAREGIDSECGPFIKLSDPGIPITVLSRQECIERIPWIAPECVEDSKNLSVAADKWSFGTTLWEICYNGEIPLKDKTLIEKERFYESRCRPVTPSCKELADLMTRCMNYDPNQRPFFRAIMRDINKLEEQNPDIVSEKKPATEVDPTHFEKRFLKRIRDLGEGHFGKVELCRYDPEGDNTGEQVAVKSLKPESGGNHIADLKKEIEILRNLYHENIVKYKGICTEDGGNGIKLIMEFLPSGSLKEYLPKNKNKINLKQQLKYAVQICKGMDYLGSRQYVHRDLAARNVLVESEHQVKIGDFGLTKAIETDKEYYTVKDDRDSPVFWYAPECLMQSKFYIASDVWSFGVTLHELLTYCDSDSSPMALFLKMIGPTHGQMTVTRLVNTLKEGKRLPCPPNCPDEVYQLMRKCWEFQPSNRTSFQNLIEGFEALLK
Would you mind telling me the reported IC50 of each entry?
One number for each entry, in nM.

Quick request: IC50 for each listed item, please.
1. CNC(=O)c1n[nH]c2cc(-c3cc(F)c(O)cc3CC(F)(F)F)nc(NCc3cc(O)ccc3N(C)S(=O)(=O)c3cccnc3)c12 [Example 54]
2. CCNC(=O)c1n[nH]c2cc(-c3cc(F)c(O)cc3CC(F)(F)F)nc(NCc3nccnc3N(CC)S(C)(=O)=O)c12 [Example 46]
3. CNC(=O)c1n[nH]c2cc(-c3cc(F)c(O)cc3CC(F)(F)F)nc(NCc3cc(F)ccc3N(C)S(C)(=O)=O)c12 [Example 14]
4. CCCCN(c1ccccc1CNc1nc(-c2cc(F)c(O)cc2CC)cc2[nH]ncc12)S(C)(=O)=O [Example 139]

Ans.
1. 6.1
2. 32.9
3. 4.2
4. 8.5

* * *

- Test system: rhIFNγ stimulated STAT-3 phosphorylation in the A549 human epithelial cell line
- experiment summary: A549 Cell Assay: Inhibition of pSTAT3
- Format: cell-based
- condition parameters: Homo sapiens; A549 cells
Mark met for IC50 under 40 nM, not met if at or over.

>>> print(df.to_string())
                                   compound                             tested_target  discrete_label
0  CNC(=O)c1n[nH]c2cc(-c3cc(F)c(O)cc3CC(F)(F)F)nc(NCC3CCCC3)c12 [Example 17]  rhIFNγ stimulated STAT-3 phosphorylation in the A549 human epithelial cell line         not met

Qu. State whether 40 nM exceeds IC50 recorded for CCc1cc(O)c(F)cc1-c1cc2[nH]nc(C(=O)NC)c2c(NCCc2ccc(NS(=O)(=O)c3ccccc3)cc2)n1 [Example 23] .
Ans. not met

Qu. State whether 40 nM exceeds IC50 recorded for Oc1cc(CC(F)(F)F)c(-c2nc(NCC3CC3)c3cn[nH]c3n2)cc1F [Example 151] .
Ans. not met
